measurement_name: melting point

Example molecules with recorded melting point:
>>> print(df.to_string())
                                   molecule  value_observed
0  CC(C)COc1c(-c2ccc(S(C)(=O)=O)cc2)cnn(CC(F)(F)F)c1=O   108 to 110 °C
1  CC(c1ccc(F)c(F)c1)n1ncc(-c2ccc(S(N)(=O)=O)cc2)c(-c2ccc(F)cc2)c1=O (stereo not shown)   214 to 215 °C
2  CS(=O)(=O)c1ccc(-c2cnn(CC(F)(F)F)c(=O)c2OCc2ccccc2)cc1   121 to 123 °C

Enquiry: GET /values?readout=melting point&item= `CC(C)CCOc1c(-c2ccc(S(C)(=O)=O)cc2)cnn(-c2ccc(F)c(F)c2)c1=O`
Return: 121 to 123 °C

###

molecular target: recombinant human Cox-2 (r-hu Cox-2) (Homo sapiens, UniProt P35354); construct: made in house; host or cells: baculovirus/Sf9 insect cells (microsomes); experiment: Recombinant human PGHS-2 enzyme assay (RHUCX2); type: biochemical; conditions: 0.1 μM; read-out: RHUCX2 % Inh. at Dose
measurement_name: inhibition at 0.1 µM

Example compounds with recorded inhibition at 0.1 µM:
In [3]: df
Out[3]:
                                   compound  value_observed
0  CC(C)COc1c(-c2ccc(S(N)(=O)=O)cc2)cnn(-c2ccc(F)cc2)c1=O             58%
1  CS(=O)(=O)c1ccc(-c2cnn(CC(F)(F)F)c(=O)c2SC2CCCCC2)cc1             25%
2  C=C(F)C(F)(F)n1ncc(-c2ccc(S(N)(=O)=O)cc2)c(-c2ccc(F)cc2)c1=O             45%
3  CS(=O)(=O)c1ccc(-c2cnn(C3CCCCC3)c(=O)c2-c2ccc(F)cc2)cc1             45%
4  CS(=O)(=O)c1ccc(-c2cnn(-c3ccc(F)c(F)c3)c(=O)c2Oc2ccc(Cl)cc2)cc1             52%
5  CC(c1cc(F)cc(F)c1)n1ncc(-c2ccc(S(N)(=O)=O)cc2)c(-c2ccc(F)cc2)c1=O (stereo not shown)             64%

Enquiry: GET /values?readout=inhibition at 0.1 µM&item= `CC(C)COc1c(-c2ccc(S(C)(=O)=O)cc2)cnn(CC(F)(F)F)c1=O`
Return: 91%

Enquiry: Repeat for the following compound: `Cc1cc(-c2c(-c3ccc(S(C)(=O)=O)cc3)cnn(-c3ccc(F)c(Cl)c3)c2=O)ccc1F`
Return: 51%

Enquiry: Repeat for the following compound: `CS(=O)(=O)c1ccc(-c2cnn(-c3ccc(F)c(F)c3)c(=O)c2C#Cc2ccccc2)cc1`
Return: 48%

Enquiry: Repeat for the following compound: `CS(=O)(=O)c1ccc(-c2cnn(Cc3ccccc3)c(=O)c2-c2ccc(Cl)c(Cl)c2)cc1`
Return: 65%

Enquiry: Repeat for the following compound: `Cc1ccc(-n2ncc(-c3ccc(S(C)(=O)=O)cc3)c(-c3ccc(F)cc3)c2=O)s1`
Return: 93%

###

target: recombinant human Cox-1 (r-hu Cox1) (Homo sapiens, UniProt P23219); construct: made in house; host or cells: baculovirus/Sf9 insect cells (microsomes); test: Recombinant human PGHS-1 enzyme assay (RHUCX1); type: biochemical; conditions: 100 μM; read-out: RHUCX1 % Inh. at Dose
Sequence (P23219 24-599): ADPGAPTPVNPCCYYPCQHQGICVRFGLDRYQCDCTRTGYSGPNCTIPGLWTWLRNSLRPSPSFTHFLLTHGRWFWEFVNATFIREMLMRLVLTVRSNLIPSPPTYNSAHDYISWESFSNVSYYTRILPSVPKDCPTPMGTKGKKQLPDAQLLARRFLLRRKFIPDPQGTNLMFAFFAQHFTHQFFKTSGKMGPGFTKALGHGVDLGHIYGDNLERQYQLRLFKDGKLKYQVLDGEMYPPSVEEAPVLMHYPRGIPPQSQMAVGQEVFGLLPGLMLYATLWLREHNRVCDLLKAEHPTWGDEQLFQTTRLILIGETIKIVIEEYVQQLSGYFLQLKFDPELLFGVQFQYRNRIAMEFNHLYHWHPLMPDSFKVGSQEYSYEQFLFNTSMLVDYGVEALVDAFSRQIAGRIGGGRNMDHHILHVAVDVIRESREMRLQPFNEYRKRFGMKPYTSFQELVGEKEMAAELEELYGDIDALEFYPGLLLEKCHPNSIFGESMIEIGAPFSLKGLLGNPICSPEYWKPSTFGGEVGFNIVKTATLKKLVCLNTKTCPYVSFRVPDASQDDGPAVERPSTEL
measurement_name: inhibition at 100 µM (%)
Write the value in % as a bare number.

Example compounds with recorded inhibition at 100 µM:
>>> df
                  compound_structure_string  measurement_unit  value_observed
0  CS(=O)(=O)c1ccc(-c2cnn(-c3ccc(F)c(Cl)c3)c(=O)c2Cc2ccccc2)cc1                 %              13
1  CS(=O)(=O)c1ccc(-c2cnn(Cc3ccccc3)c(=O)c2-c2ccc(F)cc2)cc1                 %               2
2  CC(C)CCc1c(-c2ccc(S(N)(=O)=O)cc2)cnn(-c2cccc(Cl)c2)c1=O                 %              56
3  C=C(C)CCOc1c(-c2ccc(S(C)(=O)=O)cc2)cnn(-c2ccc(F)cc2)c1=O                 %              12
4  CC1(n2ncc(-c3ccc(S(C)(=O)=O)cc3)c(-c3ccc(F)cc3)c2=O)CCCC1                 %              54
5  NS(=O)(=O)c1ccc(-c2cnn(-c3ccc(F)c(F)c3)c(=O)c2-c2ccc(F)cc2)cc1                 %              27
6  CS(=O)(=O)c1ccc(-c2cnn(-c3cc(Cl)cc(Cl)c3)c(=O)c2-c2ccc(F)cc2)cc1                 %              18

Proceeding to the next compound to report its inhibition at 100 µM.
Enquiry: GET /values?readout=inhibition at 100 µM&item= `CC(C)Oc1c(-c2ccc(S(C)(=O)=O)cc2)cnn(Cc2ccccc2)c1=O`
Return: 11

###

Molecular target: recombinant human Cox-2 (r-hu Cox-2) (Homo sapiens)
Sequence (P35354 18-604): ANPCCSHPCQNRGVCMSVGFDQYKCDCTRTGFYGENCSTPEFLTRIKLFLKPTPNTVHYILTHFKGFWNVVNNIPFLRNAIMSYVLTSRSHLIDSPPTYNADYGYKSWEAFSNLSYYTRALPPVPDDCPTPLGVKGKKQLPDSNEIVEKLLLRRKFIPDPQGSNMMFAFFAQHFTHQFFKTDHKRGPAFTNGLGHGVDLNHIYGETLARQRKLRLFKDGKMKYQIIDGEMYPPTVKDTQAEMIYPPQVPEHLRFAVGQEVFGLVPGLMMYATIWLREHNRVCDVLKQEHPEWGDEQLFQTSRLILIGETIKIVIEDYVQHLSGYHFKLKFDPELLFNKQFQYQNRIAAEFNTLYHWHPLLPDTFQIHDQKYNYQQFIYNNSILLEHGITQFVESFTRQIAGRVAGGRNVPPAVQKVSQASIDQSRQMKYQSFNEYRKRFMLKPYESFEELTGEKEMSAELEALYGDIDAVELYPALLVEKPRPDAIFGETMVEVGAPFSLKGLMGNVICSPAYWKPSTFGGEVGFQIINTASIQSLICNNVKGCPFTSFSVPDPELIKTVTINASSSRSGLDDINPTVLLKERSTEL
Assay: Recombinant human PGHS-2 enzyme assay (RHUCX2)
Details: read-out: RHUCX2 IC50 (parenthetical value)
pIC50: −log10 of the molar value.
# pIC50 >= 7 gives 1, anything below gives 0

Please review the entries below; each comes with its answer.
>>> df
                  compound_structure_string  class_label
0  NS(=O)(=O)c1ccc(-c2cnn(CC=C(F)F)c(=O)c2-c2ccc(F)cc2)cc1F            0
1  NS(=O)(=O)c1ccc(-c2cnn(-c3ccc(F)c(F)c3)c(=O)c2Oc2ccc(F)cc2)cc1F            0
2  CS(=O)(=O)c1ccc(-c2cnn(-c3cc(F)cc(F)c3)c(=O)c2Oc2ccc(F)cc2)cc1            1
3  CC(C)CCc1c(-c2ccc(S(N)(=O)=O)c(F)c2)cnn(CC(F)(F)F)c1=O            0

// next entry
Enquiry: Tell me whether pIC50 is at least 7 here: `CS(=O)(=O)c1ccc(-c2cnn(-c3ccc(F)c(Cl)c3)c(=O)c2C2CCCCC2)cc1`
Return: 1

###

System: carrageenan induced paw edema
Test: Carrageenan induced paw edema (CPE) in rats
Assay type: in vivo
Settings: 10 mpk oral, rat, 3 hours after carrageenan; read-out: CPE % Inhib. @ 10 mpk
Procedure: For oral administration, test compounds were suspended on the day of use in 100% polyethyleneglycol (PEG 400) with a motorized homogenizer equipped with a Teflon-coated pestle (TRI-R Instrument, Jamaica, N.Y.). To compare the mean responses of the treatment groups, analysis of variance was applied. Percent inhibition values were determined by comparing the individual treatment mean values to the mean of the control group. Linear regression was used to estimate IC50's/ED50's in appropriate assays. […]
# inhibition in vivo at 10 mg/kg >= 30% gives Criterion met, anything below gives Criterion not met

Enquiry: Tell me whether inhibition in vivo at 10 mg/kg is at least 30% here: `CS(=O)(=O)c1ccc(-c2cnn(CC(F)(F)F)c(=O)c2-c2ccc(F)cc2)cc1`
Return: Criterion met

Enquiry: Repeat for the following molecule: `Cc1ccc(-n2ncc(-c3ccc(S(C)(=O)=O)cc3)c(-c3ccc(F)cc3)c2=O)s1`
Return: Criterion not met

Enquiry: Repeat for the following molecule: `CC(C)(C)COc1c(-c2ccc(S(N)(=O)=O)cc2)cnn(-c2ccc(F)c(F)c2)c1=O`
Return: Criterion not met

###

Target: recombinant human Cox-2 (r-hu Cox-2) (Homo sapiens, UniProt P35354)
Construct: made in house; host or cells: baculovirus/Sf9 insect cells (microsomes)
Sequence (P35354 18-604): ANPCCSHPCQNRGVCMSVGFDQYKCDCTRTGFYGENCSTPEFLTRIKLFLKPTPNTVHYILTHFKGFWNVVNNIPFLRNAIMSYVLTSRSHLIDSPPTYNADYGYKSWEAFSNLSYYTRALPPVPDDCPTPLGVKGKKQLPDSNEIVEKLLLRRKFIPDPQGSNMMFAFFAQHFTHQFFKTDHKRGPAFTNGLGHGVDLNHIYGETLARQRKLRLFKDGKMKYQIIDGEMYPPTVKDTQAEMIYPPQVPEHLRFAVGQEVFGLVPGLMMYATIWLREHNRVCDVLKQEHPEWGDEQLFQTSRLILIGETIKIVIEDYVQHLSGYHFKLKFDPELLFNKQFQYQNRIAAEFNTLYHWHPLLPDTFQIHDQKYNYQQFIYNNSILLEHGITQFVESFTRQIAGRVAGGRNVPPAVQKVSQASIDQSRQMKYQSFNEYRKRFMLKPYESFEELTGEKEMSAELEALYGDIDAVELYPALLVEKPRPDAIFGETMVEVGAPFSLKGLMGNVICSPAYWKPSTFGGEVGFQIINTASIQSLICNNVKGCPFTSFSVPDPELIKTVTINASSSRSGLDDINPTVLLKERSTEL
Experiment: Recombinant human PGHS-2 enzyme assay (RHUCX2)
Format: biochemical
Conditions: 1 μM; read-out: RHUCX2 % Inh. at Dose
# inhibition at 1 µM >= 90% gives criterion met, anything below gives criterion not met

Please review the entries below; each comes with its answer.
>>> print(df.to_string())
                                   molecule        class_label
0  NS(=O)(=O)c1ccc(-c2cnn(Cc3ccccc3)c(=O)c2-c2ccc(F)cc2)cc1      criterion met
1  CS(=O)(=O)c1ccc(-c2cnn(CC(F)(F)F)c(=O)c2Oc2cccnc2)cc1  criterion not met
2  Cc1ccc(-c2c(-c3ccc(S(N)(=O)=O)cc3)cnn(-c3ccc(F)c(F)c3)c2=O)cc1F  criterion not met
3  CC(C)COc1c(-c2ccc(S(N)(=O)=O)cc2)cnn(-c2cccc(Cl)c2)c1=O      criterion met
4  CC(c1cc(F)cc(F)c1)n1ncc(-c2ccc(S(N)(=O)=O)cc2)c(-c2ccc(F)cc2)c1=O (centres unmarked)      criterion met

Enquiry: Tell me whether inhibition at 1 µM is at least 90% here: `CS(=O)(=O)c1ccc(-c2cnn(-c3ccc(F)c(Cl)c3)c(=O)c2Cc2cccc(F)c2)cc1`
Return: criterion met
